System: EKVX NSCLC
Test: NCI tumour cell line growth inhibition, 48 h; in the data active = GI50 below about 0.43 µM; inactive = the rest
Outcome (select one): active, inactive

Lookup: Please state the recorded outcome for this compound: `Nc1nc(/C=C\c2ccc([N+](=O)[O-])s2)nc(N2CCN(c3ccccc3)CC2)n1`
Found: inactive

Lookup: Ok, now `COc1ccc2ncn(-c3cc(O[C@H](C)c4ccccc4C(F)(F)F)c(C(N)=O)s3)c2c1`
Found: inactive

Lookup: Would you kindly repeat that for `CCc1ccc(Oc2c(-c3ccc(OCc4ccc(Cl)cc4)cc3O)n[nH]c2C(F)(F)F)cc1` ?
Found: inactive

Lookup: Same again, this time with `Cc1cc2c(C(=O)NC[C@H](C)c3ccccc3)c(O)c(O)cc2c(O)c1-c1c(C)cc2c(C(=O)NC[C@H](C)c3ccccc3)c(O)c(O)cc2c1O`
Found: active

Lookup: Another compound to check: `C=CN(C(=O)N1CCN(c2cc3c(cc2F)c(=O)c(C(=O)O)cn3C2CC2)CC1)c1nc(-c2ccc(OC)cc2)cs1`
Found: inactive

Lookup: Entry to check: CC(C)(C)C(=O)OCOP(=O)(NCc1ccccc1)C1CCCN(O)C1=O (stereo not given)
Found: inactive

Lookup: Follow-up item: `COc1ccc(C2(Cl)c3ccccc3N(c3ccccc3)c3ccccc32)cc1`
Found: active

Lookup: Similarly, `CN[C@H]1CN(c2ccc3c(=O)c(C(=O)O)cn(-c4nccs4)c3n2)C[C@@H]1OC` ?
Found: inactive

Lookup: Try `Oc1c(Cl)cc(Cl)c(Cl)c1CNCCNCc1c(O)c(Cl)cc(Cl)c1Cl` next.
Found: inactive

Lookup: Now the compound `CCOC(=O)C1=CCCC[C@H]1S(=O)(=O)Nc1ccc(F)cc1Cl`
Found: inactive

* * *

Please respond with reported TGI for every item in the list.
Tested on: CAKI-1 renal
Test: NCI tumour cell line growth inhibition, 48 h
Where a SMILES comes first, the peptide text is derived from it. [ ]: non-standard residue; d: D form. The star is where a group is joined. ξ: configuration not given here. ξNMe2Val = CC(C)C(C(=O)*)N(C)C; NMeV = CN[CH](C(=O)O)C(C)C; NHBn = c1ccc(CN*)cc1

Lookup: Identify the measured TGI of CCOC(=O)C1(C#N)OC(=O)c2cnccc21 (centres undefined) for CAKI-1 renal.
Found: > 100 µM

Lookup: Now consider CC(=O)NC1C(OC(C)C(=O)NC(C)C(=O)NC(CCC(=O)NCCCCCNc2ccc([N+](=O)[O-])c3[nH]c4ccccc4c(=O)c23)C(N)=O)C(O)C(CO)OC1(C)OCc1ccccc1 (centres undefined) .
Found: > 100 µM

Lookup: Same question for `O=c1ccc2ccc(OP(=O)(O)O)cc2o1` please.
Found: > 100 µM

Lookup: Please give the result for `c1ccc2c(CSCc3cccc4ccccc34)cccc2c1` too.
Found: > 100 µM

Lookup: And `NC(=O)NNC(=O)CCn1[nH]c(=O)c(Cl)c(Cl)c1=O` ?
Found: > 100 µM

Lookup: Another compound: CC(=O)Nc1ccc2c3c(cc(O)c2c1)N(C(=O)CCCC(=O)N1CC(CCl)c2c1cc(O)c1cc(NC(C)=O)ccc21)CC3CCl (centres undefined)
Found: 0.183 µM

Lookup: Try this compound next: `O=C(Nc1ccccc1)c1cc(S(=O)(=O)Nc2n[nH]c(=O)n2-c2ccccc2)c(S)cc1Cl`
Found: > 100 µM

Lookup: Now this one: `COC(=O)c1c([N+](=O)[O-])ncn1[C@H]1OC[C@@H](OC(C)=O)[C@@H](OC(C)=O)[C@@H]1OC(C)=O`
Found: > 100 µM

Lookup: Next compound up: `O=C(Nc1ccc(C(F)(F)F)cc1)NC(F)(F)F`
Found: > 100 µM

Lookup: Moving on to the next compound: `CC(=O)Oc1ccccc1`
Found: > 100 µM

Lookup: Also check C=CSCCC(N)C(=O)O (centres undefined)
Found: > 100 µM

Lookup: And what about the compound `CCOC(=O)Cc1c(C)c2cc(C(=O)c3ccccc3)c(O)cc2oc1=O` ?
Found: > 100 µM

Lookup: And `Cc1nc([N+](=O)[O-])cn1-c1nc2ccccn2c1[N+](=O)[O-]` ?
Found: > 100 µM

Lookup: And the next one, `CCN(CC)CCCNc1nccc2c(C)c3c(cc12)c1cnccc1n3C` ?
Found: 1.03 µM

Lookup: Continue with O=C1[C@H]2ON(c3ccccc3)C(c3ccc([N+](=O)[O-])cc3)[C@H]2C(=O)N1c1ccc(Cc2ccc(N3C(=O)[C@@H]4ON(c5ccccc5)C(c5ccc([N+](=O)[O-])cc5)[C@@H]4C3=O)cc2)cc1 (some centres undefined)
Found: > 100 µM

Lookup: What about CC(C)(O)C(O)COc1c2c(cc3oc(=O)ccc13)OCO2 (centres undefined) ?
Found: > 100 µM

Lookup: Entry `O=C(O)CCNCC(=O)O` please
Found: > 100 µM

Lookup: Another compound to check: CNC(=O)C(C)NC(=O)C(Cc1ccccc1)NC(=O)c1ccccc1 (centres undefined)
Found: > 100 µM

Lookup: And the next one, CN=C1Nc2ccccc2C(=O)N2CSCC12 (centres undefined) ?
Found: > 100 µM

Lookup: And then COc1cc(/C=C2\CC3C4CC=C5C[C@@H](OC(C)=O)CC[C@]5(C)C4CC[C@]3(C)C2=O)ccc1OCCN1CCCCC1 (some centres undefined) , what is it?
Found: 7.64 µM

Lookup: Likewise for `Cc1cnc2n1S(=O)(=O)c1cc(C(=O)Nc3cccc4nsnc34)c(Cl)cc1S2` ?
Found: 30.9 µM

Lookup: Repeat with C[C@H](C1CC(C)(O)C(C)(O)C(O)O1)[C@H]1CC[C@H]2[C@@H]3[C@@H]4O[C@@H]4[C@@]4(O)CC=CC(=O)[C@]4(C)[C@H]3CC[C@]12C (some centres undefined)
Found: > 50 µM

Lookup: Now the compound `C=CN(C(=O)N1CCN(c2cc3c(cc2F)c(=O)c(C(=O)O)cn3C2CC2)CC1)c1nc(-c2ccc(OC)cc2)cs1`
Found: 18.3 µM

Lookup: What would you report for COc1cc(C(=O)NC2CCc3cc(OC)c(OC)c(OC)c3-c3ccc(OC)c(=O)cc32)cc(OC)c1OC (centres undefined) ?
Found: 34 µM

Lookup: Check `Nc1nc(/C=C\c2ccc([N+](=O)[O-])s2)nc(N2CCN(c3ccccc3)CC2)n1` too.
Found: 39.1 µM

Lookup: And what about the compound `O=C1/C(=C\c2ccc(Cl)cc2)N=C(c2ccccc2)N1n1c(=O)cn[nH]c1=S` ?
Found: > 100 µM

Lookup: Here is the next compound: `CCCCCCCCCCCCCCCC1=NCC[N+]1(CCO)CCO`
Found: 14.6 µM

Lookup: Also need `C=C(c1ccc(OC)c(/C=C/C(=O)c2ccc3c(c2)OCO3)c1)c1cc(OC)c(OC)c(OC)c1` , thanks.
Found: > 100 µM

Lookup: Input `Oc1c(Cl)cc(Cl)c(Cl)c1CNCCNCc1c(O)c(Cl)cc(Cl)c1Cl`
Found: 9.23 µM

Lookup: Similarly, `O=c1oc2ccc(I)cc2c(=O)n1-c1ccc(Br)cc1F` ?
Found: 3.23 µM

Lookup: `CCOC(=O)C(C(=O)OCC)=C1SC(=Nc2ccccc2)C(=Nc2ccccc2)N1c1ccccc1` ?
Found: > 100 µM

Lookup: And CC1(C)OC2C(CCP(=O)(O)O)OC(c3nc(C(N)=O)cs3)C2O1 (centres undefined) ?
Found: > 100 µM

Lookup: And for `COc1ccc(Nc2nc3cc(N)cc(N)c3nc2-c2ccccc2)cc1` ?
Found: > 100 µM

Lookup: Also check `COc1c/c(=C2\C=c3ccccc3=N2)[nH]/c1=C\c1[nH]c(C)cc1C`
Found: 0.109 µM

Lookup: Same for `Cc1cnc2ccc(C)c([N+](=O)[O-])c2c1NCCCN(C)C`
Found: > 100 µM

Lookup: One more compound: CC(C)C(NC(=O)C(C(C)C)N(C)C)C(=O)N(C)C(C(=O)N1CCCC1C(=O)N1CCCC1C(=O)NCc1ccccc1)C(C)C (centres undefined) (ξNMe2Val-V[NMeV]PP-NHBn; configuration not given here)
Found: > 100 µM

Lookup: Next entry: `COc1ccc2c(c1)Cc1c(NCCN(C)C)ccc(C(=O)NCCCN(C)CCCNC(=O)c3ccc(NCCN(C)C)c4c3Nc3ccc(OC)cc3C4)c1N2`
Found: 11.9 µM

Lookup: Now the compound `O=C(NCCCCN1CCOCC1)c1cc2ccccc2o1`
Found: > 100 µM

Lookup: Then NC(=O)C1CCCN1C(=O)C(Cc1cnc[nH]1)NC(=O)C1CCCC1 (centres undefined) ?
Found: > 100 µM

* * *

System: RXF 393 renal
Assay: NCI tumour cell line growth inhibition, 48 h
I'd appreciate it if you could supply TGI values for the items below.

Lookup: Look up TGI: `C=CN(C(=O)N1CCN(c2cc3c(cc2F)c(=O)c(C(=O)O)cn3C2CC2)CC1)c1nc(-c2ccc(OC)cc2)cs1`
Found: 45.1 µM

Lookup: One more molecule: CCOC(=O)C1(C#N)OC(=O)c2cnccc21 (stereo not given)
Found: > 100 µM

Lookup: Can you check C=C(CCCCC)CN1CCCC1C(C)=O (stereo not given) next?
Found: > 95.7 µM

Lookup: Try `O=c1nc2n3c4c(cccc4nc-2c(=O)[nH]1)CCC3` next.
Found: > 100 µM

Lookup: Entry `C[C@@H](Oc1cc(-n2cnc3ccc(OC4CCN(C)CC4)cc32)sc1C(N)=O)c1ccccc1Cl` please
Found: 3.53 µM
